test: Stability of the powder in sealed aluminium foil bag, purity and titre by HPLC; format: physicochemical; conditions: protected from light, 6 months
measurement-type: Purity after 6 months
Give the value as a plain number.

**Query** Recall and state the measured Purity after 6 months for CN1c2c(nc(N)[nH]c2=O)NCC1CNc1ccc(C(=O)NC(CCC(=O)O)C(=O)O)cc1.NC1C(O)OC(CO)C(O)C1O.NC1C(O)OC(CO)C(O)C1O [D-GLU (6S)-5-MTHF] .
**Result** 99.0

**Query** Please give the documented Purity after 6 months of N[C@H]1C(O)O[C@H](CO)[C@@H](O)[C@@H]1O.N[C@H]1C(O)O[C@H](CO)[C@@H](O)[C@@H]1O.Nc1nc2ncc(CNc3ccc(C(=O)N[C@@H](CCC(=O)O)C(=O)O)cc3)nc2c(=O)[nH]1 [D-GLU folate, D-glucosamine L-folate]
**Result** 98.8

**Query** Specify Purity after 6 months for N[C@H]1C(O)O[C@H](CO)[C@H](O)[C@@H]1O.N[C@H]1C(O)O[C@H](CO)[C@H](O)[C@@H]1O.Nc1nc2ncc(CNc3ccc(C(=O)N[C@@H](CCC(=O)O)C(=O)O)cc3)nc2c(=O)[nH]1 [D-GAL folate, D-galactosamine L-folate] and stop.
**Result** 99.1

These data points were gathered from patent US7947662B2.
